Each recorded value in this set is attributed to patent US20200188466A1.

# ASSAY DETAILS: Plasma kinetic study of colchicine with and without Schisandrin A
# Format: in vivo
# RUN CONDITIONS: male, Sprague Dawley, rat, po, 3 mg/kg, Group2, rats, Schisandrin A 0 mg/kg oral 5 min before colchicine 3.0 mg/kg oral
MEASURE: Tmax (min)
Field: numeric (min). Do not append units.

Which Tmax value belongs to COc1cc2c(c(OC)c1OC)-c1ccc(OC)c(=O)cc1[C@@H](NC(C)=O)CC2 ? 13.2

----------
# ASSAY DETAILS: Plasma kinetic study of colchicine with and without Schisandrin A
# Format: in vivo
# RUN CONDITIONS: male, Sprague Dawley, rat, po, 3 mg/kg, Group5, rats, Schisandrin A 25.2 mg/kg oral 5 min before colchicine 3.0 mg/kg oral
MEASURE: Cmax (ng/mL)
Field: numeric (ng/mL). Do not append units.

Which Cmax value belongs to COc1cc2c(c(OC)c1OC)-c1ccc(OC)c(=O)cc1[C@@H](NC(C)=O)CC2 ? 29.3
